target: Integrin alpha-IIb/beta-3 (Homo sapiens, UniProt P05106+P08514); test: Tested for inhibition of fibrinogen binding to purified GPIIb/IIIa isolated from human platelets and reconstituted in liposomes
Sequence (P05106 27-788 limits assumed): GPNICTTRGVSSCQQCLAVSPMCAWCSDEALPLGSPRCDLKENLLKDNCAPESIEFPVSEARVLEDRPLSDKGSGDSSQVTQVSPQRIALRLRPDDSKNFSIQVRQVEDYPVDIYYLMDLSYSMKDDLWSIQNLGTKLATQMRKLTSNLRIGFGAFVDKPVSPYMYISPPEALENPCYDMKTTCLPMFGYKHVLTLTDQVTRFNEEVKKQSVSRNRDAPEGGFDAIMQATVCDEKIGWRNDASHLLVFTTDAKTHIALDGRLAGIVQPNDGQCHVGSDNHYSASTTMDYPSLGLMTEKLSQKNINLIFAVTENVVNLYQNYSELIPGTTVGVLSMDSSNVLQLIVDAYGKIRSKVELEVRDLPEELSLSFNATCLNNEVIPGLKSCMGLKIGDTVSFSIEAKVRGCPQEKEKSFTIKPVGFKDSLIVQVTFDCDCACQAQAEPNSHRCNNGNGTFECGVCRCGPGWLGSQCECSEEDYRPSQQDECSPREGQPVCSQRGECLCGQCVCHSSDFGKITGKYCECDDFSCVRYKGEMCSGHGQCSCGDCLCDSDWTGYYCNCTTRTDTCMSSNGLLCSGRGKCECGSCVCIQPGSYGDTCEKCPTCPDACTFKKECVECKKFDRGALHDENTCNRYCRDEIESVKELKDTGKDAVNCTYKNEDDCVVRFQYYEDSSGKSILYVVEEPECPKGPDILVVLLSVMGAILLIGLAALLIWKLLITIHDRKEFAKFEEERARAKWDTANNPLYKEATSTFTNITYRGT
Sequence (P08514 32-887 limits assumed): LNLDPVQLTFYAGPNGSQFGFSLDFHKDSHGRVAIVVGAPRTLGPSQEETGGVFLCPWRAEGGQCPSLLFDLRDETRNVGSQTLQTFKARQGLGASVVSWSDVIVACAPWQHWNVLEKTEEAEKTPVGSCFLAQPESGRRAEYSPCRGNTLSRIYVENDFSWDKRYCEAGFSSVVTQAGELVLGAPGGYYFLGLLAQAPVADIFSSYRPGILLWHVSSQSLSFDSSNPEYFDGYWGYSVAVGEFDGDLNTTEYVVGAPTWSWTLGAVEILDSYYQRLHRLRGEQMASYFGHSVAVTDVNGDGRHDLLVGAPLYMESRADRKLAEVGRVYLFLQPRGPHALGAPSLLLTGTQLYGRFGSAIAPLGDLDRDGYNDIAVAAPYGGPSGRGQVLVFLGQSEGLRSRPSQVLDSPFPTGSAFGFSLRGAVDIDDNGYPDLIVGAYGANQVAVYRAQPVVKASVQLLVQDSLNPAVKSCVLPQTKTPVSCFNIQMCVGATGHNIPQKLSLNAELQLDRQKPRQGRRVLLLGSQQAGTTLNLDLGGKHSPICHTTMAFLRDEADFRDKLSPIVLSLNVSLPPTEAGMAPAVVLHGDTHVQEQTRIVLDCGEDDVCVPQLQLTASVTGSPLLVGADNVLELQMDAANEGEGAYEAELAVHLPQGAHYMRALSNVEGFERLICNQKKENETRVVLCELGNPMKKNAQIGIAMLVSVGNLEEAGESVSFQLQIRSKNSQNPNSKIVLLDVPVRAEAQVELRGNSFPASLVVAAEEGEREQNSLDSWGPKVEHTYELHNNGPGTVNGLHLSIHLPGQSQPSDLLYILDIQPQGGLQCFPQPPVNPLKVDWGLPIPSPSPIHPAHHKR
Sequence (P08514 891-1039 limits assumed): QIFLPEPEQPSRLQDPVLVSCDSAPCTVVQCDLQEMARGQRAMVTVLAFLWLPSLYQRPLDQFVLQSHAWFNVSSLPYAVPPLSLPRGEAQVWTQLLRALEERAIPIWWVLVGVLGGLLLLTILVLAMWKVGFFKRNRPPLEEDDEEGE
pKi: −log10 of the molar value. Starred links: 1 amine or outer side, 2 acyl side, 3 side chain; linkers in the order of their positions; H or OH if unused. Positions of bridges follow the written chain, without caps; N, C: chain ends. Non-standard residues stand in square brackets, D forms with d. Residues, ends and D or L forms follow the SMILES beside them. X2 = O=C(CN([C@@H](CS[*:3])C(=O)[*:2])[*:1])c1ccccc1; X4 = O=C([C@@H](N[*:1])[C@@H](S[*:3])c1ccccc1)[*:2]; NMeR = CN[C@@H](CCCNC(=N)N)C(=O)O; Pen = CC(C)(S)[C@H](N)C(=O)O
RECORDED METRIC: pKi

Below are worked cases with known answers.
CN1C(=O)[C@@H](NCC(=O)c2ccccc2)CSSC(C)(C)[C@@H](C(N)=O)NC(=O)[C@H](CC(=O)O)NC(=O)CNC(=O)[C@@H]1CCCN=C(N)N (H-[X2][NMeR]GD[Pen]-NH2; disulfide 1-5)    7.46
CN1C(=O)[C@@H](N)CSSC(C)(C)[C@@H](C(=O)O)NC(=O)[C@H](CC(=O)O)NC(=O)CNC(=O)[C@@H]1CCCN=C(N)N (H-C[NMeR]GD[Pen]-OH; disulfide 1-5)    8.32
CC(=O)N[C@@H]1CSSC(C)(C)[C@H](C(N)=O)NC(=O)C(CC(=O)O)NC(=O)CNC(=O)C(CCCN=C(N)N)NC1=O (single isomer, unassigned; 31)    5.52
CC(=O)N[C@H]1CSSc2ccccc2NC(=O)[C@H](CC(=O)O)NC(=O)CNC(=O)[C@H](CCCNC(=N)N)NC1=O (single isomer, unassigned)    6.55

a. CC(=O)N[C@H]1CSSC(C)(C)[C@@H](C(N)=O)NC(=O)[C@H](CC(=O)O)NC(=O)CNC(=O)[C@H](CCCNC(=N)N)NC(=O)CN(C)C1=O (single isomer, unassigned)
b. CC(=O)N[C@H]1CSS[C@@H](c2ccccc2)[C@@H](C(N)=O)NC(=O)[C@H](CC(=O)O)NC(=O)CNC(=O)[C@H](CCCNC(=N)N)N(C)C1=O (Ac-C[NMeR]GD[X4]-NH2; disulfide 1-5)
Select one: a or b . Criterion: greater recorded pKi. Use the label to indicate which entry you chose. b
(b: 7.35, a: 7.11)

1. CC(=O)N[C@@H]1C(=O)N(C)[C@@H](CCCN=C(N)N)C(=O)NCC(=O)N[C@@H](CC(=O)O)C(=O)N[C@H](C(N)=O)C(C)(C)SSC1(C)C (single isomer, unassigned)
2. CN1CC(=O)N(C)[C@@H](CCCN=C(N)N)C(=O)NCC(=O)N[C@@H](CC(=O)O)C(=O)Nc2ccccc2SSc2ccccc2C1=O
Could you determine which record has the numerically smaller pKi? Candidates: 1 and 2 Use the label to indicate which entry you chose. 2
(2: 7.61, 1: 8.60)

----------
molecular target: Integrin alpha-IIb/beta-3 (Homo sapiens, UniProt P05106+P08514); assay: Tested for inhibition of fibrinogen binding to purified GPIIb/IIIa isolated from human platelets and reconstituted in liposomes
pKi: −log10 of the molar value. Starred links: 1 amine or outer side, 2 acyl side, 3 side chain; linkers in the order of their positions; H or OH if unused. Positions of bridges follow the written chain, without caps; N, C: chain ends. Non-standard residues stand in square brackets, D forms with d. Residues, ends and D or L forms follow the SMILES beside them. *: point of attachment. X1 = O=C([C@@H](N[*:1])[C@H](S[*:3])c1ccccc1)[*:2]; NMeR = CN[C@@H](CCCNC(=N)N)C(=O)O; Pen = CC(C)(S)[C@H](N)C(=O)O; Pentanoyl = CCCCC(=O)*; Bz = O=C(c1ccccc1)*
RECORDED METRIC: pKi

CC(=O)N[C@H]1CSSC(C)(C)[C@@H](C(N)=O)NC(=O)[C@H](CC(=O)O)NC(=O)CNC(=O)[C@H](CCCN=C(N)N)N(C)C(=O)CNC1=O (single isomer, unassigned)    6.87

I. CCCCC(=O)N[C@H]1CSSC(C)(C)[C@@H](C(N)=O)NC(=O)[C@H](CC(=O)O)NC(=O)CNC(=O)[C@H](CCCN=C(N)N)N(C)C1=O (Pentanoyl-C[NMeR]GD[Pen]-NH2; disulfide 1-5)
II. CN1C(=O)[C@@H](NC(=O)c2ccccc2)CSSC(C)(C)[C@@H](C(N)=O)NC(=O)[C@H](CC(=O)O)NC(=O)CNC(=O)[C@@H]1CCCN=C(N)N (Bz-C[NMeR]GD[Pen]-NH2; disulfide 1-5)
III. CC(=O)N[C@H]1CSS[C@H](c2ccccc2)[C@@H](C(=O)O)NC(=O)[C@H](CC(=O)O)NC(=O)CNC(=O)[C@H](CCCNC(=N)N)N(C)C1=O (Ac-C[NMeR]GD[X1]-OH; disulfide 1-5)
IV. CC(=O)N[C@H]1CSSC(C)(C)[C@H](C(N)=O)NC(=O)[C@@H](CC(=O)O)NC(=O)CNC(=O)[C@@H](CCCNC(=N)N)NC1=O
Sort the compounds on pKi; start with the lowest figure. In plain terms: list the labels in the order you were asked to. IV, I, II, III
(IV: 5.58, I: 7.59, II: 7.86, III: 8.68)

Data credit: ChEMBL document CHEMBL1127669
